Test system: HOP-92
Test: NCI tumour cell line growth inhibition, 48 h
Calls of active or inactive are those of the source. Cut-off read from the data, not from the text of the source: active = GI50 up to about 1.1 µM and inactive = higher.
Use one of these outcomes when replying: Y (active), N (inactive)

Look up the recorded call for O=C(C[n+]1ccccc1)N/N=C(/CCC(=O)N(Cc1ccccc1)Cc1ccccc1)CC(=O)c1ccccc1 in this test. N

Look up the recorded call for OC1(c2ccc(Cl)cc2)c2ccccc2C2=NCc3ccccc3CN21 (stereo not drawn) in this test. N

Look up the recorded call for CC(c1ccccc1)/[N+]([O-])=C/c1ccccc1 (stereo not drawn) in this test. N

Look up the recorded call for CC(=O)OC(COc1ccc2c(c1)[n+]([O-])nc(N)[n+]2[O-])CN1CCCCC1 (stereo not drawn) in this test. N

Look up the recorded call for Cc1ccc(S(=O)(=O)N/N=C2/CCCOC2)cc1 in this test. N

Look up the recorded call for Nc1ccn(C2OC(CO)C(O)C2(F)F)c(=O)n1 (stereo not drawn) in this test. Y

Look up the recorded call for O=C1CC2OCC=C3CN4CCC56c7ccccc7N1C5C2C3CC46O (stereo not drawn) in this test. N

Look up the recorded call for OCC(O)C(O)C(O)C(O)c1nnn[nH]1 (stereo not drawn) in this test. N

Look up the recorded call for Cc1c(C#N)c2nnn(-c3cccc(Cl)c3)c(=O)n2c1-c1ccccc1 in this test. N

Look up the recorded call for CN(C)c1ccc(/C=C(\C#N)C(=O)c2ccccc2)cc1Br in this test. N

Look up the recorded call for COc1ccc(/C(C)=N/NC(=O)c2ccncc2)cc1OC in this test. N

Look up the recorded call for CCCCCC[C@H]1CC(=O)C2CCCC[C@@]23CC[C@H](CCl)N13.CCCCCC[C@H]1CC(=O)C2CCCC[C@@]23C[C@H](Cl)CN13 (stereo partly drawn) in this test. N

Look up the recorded call for CC(=O)O[C@H]1C[C@]2(C)C(CCC3O[C@@]32C)[C@@]2(CC(c3ccoc3)OC2O)[C@@H]1C (stereo partly drawn) in this test. N

Look up the recorded call for COc1ccc(C(=O)C(C(=O)CCC(=O)Nc2ccc(C)c(C)c2)c2ccc(OC)cc2)cc1 (stereo not drawn) in this test. N

Look up the recorded call for COc1ccc2c(c1)-c1c(c3cc(OC)ccc3n1CCN1CCOCC1)CC2 in this test. N

Look up the recorded call for CCOc1cc2c(cc1O)C(=O)C[C@@H]1[C@@H]2CC[C@]2(C)[C@@H](O)CC[C@@H]12 in this test. N

Look up the recorded call for C[C@H](C1CC(C)(O)C(C)(O)C(O)O1)[C@H]1CC[C@H]2[C@@H]3[C@@H]4O[C@@H]4[C@@]4(O)CC=CC(=O)[C@]4(C)[C@H]3CC[C@]12C (stereo partly drawn) in this test. N

Look up the recorded call for CCOC(=O)c1ccc(Nc2nc3cc(C(F)(F)F)ccc3nc2C(=O)OCC)cc1 in this test. N

Look up the recorded call for COc1cc2c(cc1OC)C(Cc1cc(Br)c(OC)c(OC)c1)=[N+](C)CC2 in this test. N

Look up the recorded call for Cc1c(Cl)nc(Nc2nc3ccccc3[nH]2)nc1Cl in this test. N

Look up the recorded call for N/N=C1\c2ccccc2C2/C(=N\N)c3ccccc3C12 (stereo not drawn) in this test. N

Look up the recorded call for CC(C)Cn1cnc2c(Cl)nc3ccccc3c21 in this test. N

Look up the recorded call for O=c1oc2ccc3ccccc3c2cc1-c1nc2ccc([N+](=O)[O-])cc2o1 in this test. N

Look up the recorded call for CC(C)(C)OC(=O)NC(Cc1ccc(OCc2ccccc2)cn1)C(=O)N1CCCC1 (stereo not drawn) in this test. N

Look up the recorded call for Nc1ncnc2c1ncc(=O)n2C1CC(O)C(CO)O1 (stereo not drawn) in this test. N

Look up the recorded call for C=C1C(=O)OC2CC(=C)C3CC=C(C)C3CC12 (stereo not drawn) in this test. N

Look up the recorded call for C(/Cc1ccc2c(c1)OCO2)=N\N=C1NCCCN1 in this test. N

Look up the recorded call for Cn1c(=O)c(/N=N/c2c(=O)n(C)c(=O)n3c2[nH]c2ccccc23)c2[nH]c3ccccc3n2c1=O in this test. N

Look up the recorded call for c1ccc(C(Oc2noc3ccccc23)c2ccccc2)cc1 in this test. N

Look up the recorded call for O=C(N/C=C1\C(=O)Oc2ccccc2C1=O)NC1CCCCC1 in this test. N

Look up the recorded call for Cc1cc(O)cc2oc(=O)c3c(O)cc(O)cc3c12 [ALTERNARIOL] in this test. N

Look up the recorded call for Cc1ccc(S(=O)(=O)NC(=O)NCCc2ccccc2)cc1 in this test. N

Look up the recorded call for CC(=O)O/N=C/c1ncccc1CO in this test. N
